molecular target: thrombin (alpha-thrombin) (Homo sapiens, UniProt P00734;P00734 P00734:315-363,P00734:364-622); assay: filter; DPBS Ca Mg, BSA, RT
pKd: −log10 of the molar value.
measured-parameter: pKd

ACTGCCTAGGTTGGGTAGGGTGGTGGCAGT (ssDNA, PS linkage between nt 1 and 2) [ARC2644] ... 9.74

All figures here come from patent US20090221680.
